test system: OVCAR-4 ovarian; assay: NCI-60 one-dose screen, 48 h (100 = growth as untreated, 0 = no growth, -100 = all killed); conditions: 10 µM unless noted
The panel holds about 83,000 compounds, 20% with a hit somewhere; the sample as a whole holds those more often.

molecule	growth / %
CN(C)c1ccc(-c2cc(-c3ccc(Nc4nc(Nc5ccccc5)nc(Nc5ccc(Cl)cc5)n4)cc3)nc(N)n2)cc1	49.6
COc1cccc(/C=C2\COc3ccc(O)cc3C2=O)c1OC	92.5
Nc1nc(Nc2ccc(Cl)cc2)nn1S(=O)(=O)c1ccc(-c2ccc(F)cc2)cc1	89.4
Clc1ccc(-c2cn(-c3ccccc3)c(-c3ccccc3)n2)cc1	88.1
CCN1CCN(c2ccc(Nc3cc(-c4cccnc4Nc4c(Cl)c(OC)cc(OC)c4Cl)ncn3)cc2)CC1	48.8
Cc1[nH]c(-c2nc3ccccc3[nH]2)c(C)c1C(=O)NNc1ccc(Cl)cc1	88.2

Cited source for all entries: PubChem BioAssay (NCI)
